Entry source: BigSolDB 2.1

settings: in methanol, 315.15 K
measuredProperty: solubility (mole fraction)

Fill in solubility (mole fraction) for record Cc1cc(C#N)c(Nc2ccccc2[N+](=O)[O-])s1 0.00368

====

conditions: in ethanol, 329.15 K
measuredProperty: solubility (mole fraction)
Please state the value as a number alone, without comment.

Please give the documented solubility (mole fraction) of Cc1cc(C#N)c(Nc2ccccc2[N+](=O)[O-])s1 0.00638

====

conditions: in DMSO, 325.15 K
measuredProperty: solubility (mole fraction)
# output: bare number, no unit

Given Cc1cc(C#N)c(Nc2ccccc2[N+](=O)[O-])s1 , respond with its solubility (mole fraction). 0.112

====

details: in acetic acid, 325.15 K
measuredProperty: solubility (mole fraction)
// response body must contain only the number

Give reported solubility (mole fraction) value for Cc1cc(C#N)c(Nc2ccccc2[N+](=O)[O-])s1 0.0202
